half-life at 1 µM values, listed per item
Experiment: in vitro
Conditions: human, liver microsomes

Here's what some known entries look like.
{"columns": ["Cpd Smiles", "Assay Readout", "Result"],
 "data": [
  ["CCS(=O)(=O)c1ccc(CC(=O)Nc2ccc(-c3nc4ccc(C(F)(F)F)cc4n3[C@@H](C)c3ccc(F)cc3)cc2)cc1", "half-life at 1 µM", "> 2 h"],
  ["O=C(c1ccc(F)cc1)C1CCN(CCn2c(=O)[nH]c3ccccc3c2=O)CC1", "half-life at 1 µM", "> 2 h"]
]}

Would you kindly look at the next entry?
q: // query half-life at 1 µM value for entry `CCS(=O)(=O)c1ccc(CC(=O)Nc2ccc(-c3nc4ccc(C(F)(F)F)cc4n3[C@H](C)c3ccc(F)cc3)cc2)cc1`
a: 0.0505 h

====

Experiment: in vitro
Settings: rat, liver microsomes
Assay Readout: half-life at 1 µM

Examples from the recorded data:
{"columns": ["Compound", "half-life at 1 µM"],
 "data": [
  ["O=C(c1ccc(F)cc1)C1CCN(CCn2c(=O)[nH]c3ccccc3c2=O)CC1 [KETANSERIN]", "> 2 h"],
  ["CCS(=O)(=O)c1ccc(CC(=O)Nc2ccc(-c3nc4ccc(C(F)(F)F)cc4n3[C@@H](C)c3ccc(F)cc3)cc2)cc1", "> 2 h"]
]}

From here, focus on the item given below.
q: Form field: reported half-life at 1 µM of `CCS(=O)(=O)c1ccc(CC(=O)Nc2ccc(-c3nc4ccc(C(F)(F)F)cc4n3[C@H](C)c3ccc(F)cc3)cc2)cc1`
a: 0.373 h

====

Entries and their clearance at 24 h
Assay: in vivo
Conditions: Sprague-Dawley, rat, iv, 5 mg/kg
Form entry: value (mL/min/kg) — number only.

{"columns": ["Cpd Smiles", "Assay Readout", "Unit Abbrev", "Result Number"],
 "data": [
  ["CCS(=O)(=O)c1ccc(CC(=O)Nc2ccc(-c3nc4ccc(C(F)(F)F)cc4n3[C@@H](C)c3ccc(F)cc3)cc2)cc1", "clearance at 24 h", "mL/min/kg", 3.33]
]}

Then there is this compound:
q: If you can, please state the reported clearance at 24 h value of `CCS(=O)(=O)c1ccc(CC(=O)Nc2ccc(-c3nc4ccc(C(F)(F)F)cc4n3[C@H](C)c3ccc(F)cc3)cc2)cc1` .
a: 3

Ref: ChEMBL document CHEMBL5241082
